Measurement target: mouse GPR4 (Mus musculus (Mouse), UniProt Q8BUD0)
Sequence (Q8BUD0 whole entry): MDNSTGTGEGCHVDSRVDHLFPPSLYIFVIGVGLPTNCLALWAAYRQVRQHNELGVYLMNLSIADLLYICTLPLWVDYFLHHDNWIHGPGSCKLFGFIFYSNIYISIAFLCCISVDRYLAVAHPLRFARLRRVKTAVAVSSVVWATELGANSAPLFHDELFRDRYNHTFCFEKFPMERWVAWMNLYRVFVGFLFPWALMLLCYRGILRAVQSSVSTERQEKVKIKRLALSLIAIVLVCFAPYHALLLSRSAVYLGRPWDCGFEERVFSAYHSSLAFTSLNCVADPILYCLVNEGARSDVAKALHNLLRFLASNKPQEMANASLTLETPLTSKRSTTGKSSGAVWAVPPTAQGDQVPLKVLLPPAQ
Assay procedure: Mouse GPR4 cAMP assay
Counter-ions that a name gives are not always drawn.
Consider the following compounds; for each one, report its pIC50.
Give bare numbers, as −log10 of the molar value.

Hi, could you look up pIC50 for each item in my list?
1. CCc1nn2c(C)cc(C)nc2c1Cc1ccc(OC[C@H]2CC[C@@H](NC(=O)[C@H]3NCC[C@H]3O)CC2)cc1
2. CCc1nn2c(C)cc(C)nc2c1Cc1ccc(/C=C/C2(O)CCNCC2)cc1

Solution:
6.44
6.58

Hi, could you look up pIC50 for each item in my list?
1. CCc1nn2c(C)cc(C)nc2c1Cc1ccc(/C=C/CC2(O)CCN(C(=O)CNC)CC2)cc1 [Example 7, hydrochloride]
2. CCc1nn2c(C)cc(C)nc2c1Cc1ccc(/C=C/CN2CCN[C@H](CO)C2)cc1 [Example 8, dihydrochloride]

Solution:
1: 6.60; 2: 6.42

Exercise: What does the record list as pIC50 for CCc1nn2c(C)cc(C)nc2c1Cc1ccc(OCCC2(O)CCNCC2)cc1 ?
Solution: 6.20

Cited source: patent US8748435B2
